Below: a set of entries, each annotated with reported Plant response rating, Horseweed.
# Test system: horseweed
# Assay procedure: Test C postemergence
# Assay type: in vivo, Erigeron canadensis
# Particulars: Postemergence, 1000 g ai/ha, 10 days, visual 0 to 100 scale (0 no effect, 100 complete control)
I only need the number, thanks.

Worked examples, 6 compounds total:
C[C@H]1CN(C(=O)c2cccc(-c3cnnn3C)c2)c2cccc(Cl)c2O1    30
C[C@H]1CN(C(=O)c2cccc(-c3cn(C)cn3)c2)c2cccc(Cl)c2O1    30
Cc1cnc(-c2cccc(C(=O)N3C[C@H](C)Oc4c(C)cccc43)c2)s1    40
Cc1cc(-c2cccc(C(=O)N3C[C@H](C)Oc4c(C)cccc43)c2)cs1    30
Cc1nccc(-c2cccc(C(=O)N3C[C@H](C)Oc4c(C)cccc43)c2)n1    0
C[C@H]1CN(C(=O)c2cccc(-c3cncc(Cl)c3)c2)c2cccc(Cl)c2O1    0

Field: next compound
Record `CCOC(=O)c1cncn1-c1cccc(C(=O)N2C[C@H](C)Oc3c(C)cccc32)c1` . Reported Plant response rating, Horseweed: 0

----------
Below: a set of entries, each annotated with reported Goosegrass plant response rating.
# Test system: goosegrass
# Assay procedure: Test A postemergence
# Format: in vivo, Eleusine indica
# Particulars: 125 g ai/ha, postemergence, 10 days; 0 to 100 scale, 0 no effect, 100 complete control
I only need the number, thanks.

Worked examples, 4 compounds total:
CC(C)c1ncn(-c2ccc(O)c(C(=O)N3C[C@H](C)Oc4c(Cl)cccc43)c2)n1    0
COc1ccc(-n2cnc(C)n2)cc1C(=O)N1C[C@H](C)Oc2c(Cl)cccc21    90
C#CCOc1ccc(-n2cnc(C(C)C)n2)cc1C(=O)N1C[C@H](C)Oc2c(Cl)cccc21    70
CCc1ncn(-c2ccc(C)c(C(=O)N3C[C@H](C)Oc4c(C)cccc43)c2)n1    80

Record CCC(C)c1ncn(-c2cccc(C(=O)N3C[C@H](C)Oc4c(C)cccc43)c2)n1 (stereo partly drawn) . Reported Goosegrass plant response rating: 30

Record `Cc1ccc(-n2cnc(C(C)C)n2)cc1C(=O)N1C[C@H](C)Oc2c(C)cccc21` . Reported Goosegrass plant response rating: 90

----------
Below: a set of entries, each annotated with reported Plant response rating, Horseweed.
# Test system: horseweed
# Assay procedure: Test C postemergence
# Format: in vivo, Erigeron canadensis
# Particulars: Postemergence, 125 g ai/ha; 0 to 100 scale (0 no effect, 100 complete control), 10 days
I only need the number, thanks.

COc1ccc(-n2cnc(C3CC3)n2)cc1C(=O)N1C[C@H](C)Oc2c(Cl)cccc21 [Compound 324]    60

Record Cc1ccc(-n2cnc(C(C)O)n2)cc1C(=O)N1CC(C)Oc2c(Cl)cccc21 (mixture of isomers) [Compound 358] . Reported Plant response rating, Horseweed: 70

Record CC(C)c1ncn(-c2ccc([S+](C)[O-])c(C(=O)N3C[C@H](C)Oc4c(Cl)cccc43)c2)n1 (some centres unmarked) [Compound 394] . Reported Plant response rating, Horseweed: 0

Record CNc1ncn(-c2cccc(C(=O)N3C[C@H](C)Oc4c(C)cccc43)c2)n1 [Compound 337] . Reported Plant response rating, Horseweed: 0

Record Cc1ccc(-n2cnc(C(C)C)n2)cc1C(=O)N1CC(C(F)(F)F)Oc2c(Cl)cccc21 (centres unmarked) [Compound 354] . Reported Plant response rating, Horseweed: 30

----------
# System: green foxtail
# Assay procedure: Test C postemergence
# Format: in vivo, Setaria viridis
# Particulars: 125 g ai/ha, postemergence, 10 days; 0 to 100 scale, 0 no effect, 100 complete control
Measured endpoint: Plant response rating, Foxtail, Green
I only need the number, thanks.

Worked examples, 7 compounds total:
C[C@H]1CN(C(=O)c2cccc(-n3cnc(C(C)(C)O)n3)c2)c2cccc(Cl)c2O1 [Compound 169]    30
CSCc1ncn(-c2ccc(C)c(C(=O)N3C[C@H](C)Oc4c(Cl)cccc43)c2)n1 [Compound 178]    20
COc1ccc(-n2cnc(C(C)(C)O)n2)cc1C(=O)N1C[C@H](C)Oc2c(C)cccc21 [Compound 280]    60
Cc1ccc(-n2cnc(C3(C)COC3)n2)cc1C(=O)N1C[C@H](C)Oc2c(Cl)cccc21 [Compound 275]    70
CCc1c(F)cc(-n2cnc(C(C)C)n2)cc1C(=O)N1C[C@H](C)Oc2c(Cl)cccc21 [Compound 152]    40
COc1cc(C(=O)N2C[C@H](C)Oc3c(Cl)cccc32)cc(-n2cnc(C3CCC3)n2)c1 [Compound 214]    30
COc1ccc(-n2cnc(C(C)C)n2)cc1C(=O)N1C[C@H](C)Oc2c(F)cccc21 [Compound 269]    90

Field: next compound
Record COC[C@H]1CN(C(=O)c2cc(-n3cnc(C(C)(C)O)n3)ccc2C)c2cccc(Cl)c2O1 [Compound 276] . Reported Plant response rating, Foxtail, Green: 40

----------
# System: ragweed
# Assay procedure: Test C postemergence
# Type: in vivo, Ambrosia artemisiifolia
# Particulars: 500 g ai/ha, postemergence, 10 days, 0 to 100 scale (0 no effect, 100 complete control)
Label t when Plant response rating, Ragweed is at or above 50; otherwise label f.

These solved cases illustrate the format of a correct answer.
Cc1ncn(-c2cccc(C(=O)N3C[C@H](C)Oc4c(Cl)cccc43)c2)n1    t
COc1ccc(-n2cnc(C3CC3)n2)cc1C(=O)N1C[C@H](C)Oc2c(Cl)cccc21    t
CC(=O)N(C)c1ncn(-c2cccc(C(=O)N3C[C@H](C)Oc4c(C)cccc43)c2)n1    f
Cc1cccc2c1OC(C(F)(F)F)CN2C(=O)c1cccc(-n2cnc(C(C)C)n2)c1 (single isomer, unassigned) [Compound 303]    t
Cc1cccc2c1O[C@@H](C)CN2C(=O)c1cccc(-n2cnc(N)n2)c1    f
COC(C)(C)c1ncn(-c2ccc(C)c(C(=O)N3C[C@H](C)Oc4c(Cl)cccc43)c2)n1    t

Consider now this further compound.
Q. // inclusive: Plant response rating, Ragweed at least 50? input: `CCOc1ncn(-c2cccc(C(=O)N3C[C@H](C)Oc4c(Cl)cccc43)c2)n1`
A. f

----------
# System: kochia
# Assay procedure: Test A postemergence
# Assay type: in vivo, Bassia scoparia
# Particulars: 500 g ai/ha, postemergence, 10 days, visual injury, 0 to 100 scale (0 no effect, 100 complete control)
Measured endpoint: Plant response rating, Kochia
I only need the number, thanks.

CC(C)c1ncn(-c2ccc(OC(F)F)c(C(=O)N3C[C@H](C)Oc4c(Cl)cccc43)c2)n1    90
Cc1ccc(-n2cnc(C3CC3)n2)cc1C(=O)N1C[C@H](C)Oc2c(Cl)cccc21    100
Cc1ccc(-n2cnc(C(C)(C)C)n2)cc1C(=O)N1C[C@H](C)Oc2c(C)cccc21    90
C[C@H]1CN(C(=O)c2cccc(-n3cnc(Br)n3)c2)c2cccc(Cl)c2O1    90
C[C@H]1CN(C(=O)c2cccc(-n3cnc(CC4CCCCC4)n3)c2)c2cccc(Cl)c2O1    20
COc1cc(C(=O)N2C[C@H](C)Oc3c(Cl)cccc32)cc(-n2cncn2)c1    80
C=CCOc1ccc(-n2cnc(C(C)C)n2)cc1C(=O)N1C[C@H](C)Oc2c(Cl)cccc21    90
C[C@H]1CN(C(=O)c2cc(I)cc(-n3cncn3)c2)c2cccc(Cl)c2O1    70

Observed Plant response rating, Kochia, kochia, `Cc1cccc2c1O[C@@H](C)CN2C(=O)c1cccc(-n2cnc(Cl)n2)c1` : 60

Observed Plant response rating, Kochia, kochia, `Cc1cccc2c1O[C@@H](C)CN2C(=O)c1cccc(-n2cnc(C3CCCCC3)n2)c1` : 80

Observed Plant response rating, Kochia, kochia, `COc1ccc(-n2cnc(C)n2)cc1C(=O)N1C[C@H](C)Oc2c(Cl)cccc21` : 90

Observed Plant response rating, Kochia, kochia, `CCc1ccc(-n2cnc(C(C)(C)C)n2)cc1C(=O)N1C[C@H](C)Oc2c(Cl)cccc21` : 90

Observed Plant response rating, Kochia, kochia, `Cc1cccc2c1O[C@@H](C)CN2C(=O)c1cccc(-n2cnc(C3CCC3)n2)c1` : 90

----------
# System: goosegrass
# Assay procedure: Test A postemergence
# Assay type: in vivo, Eleusine indica
# Particulars: 125 g ai/ha, postemergence, 10 days, visual injury, 0 to 100 scale (0 no effect, 100 complete control)
Below: a set of entries, each annotated with reported Plant response rating, Goosegrass.
I only need the number, thanks.

Worked examples, 2 compounds total:
C[C@H]1CN(C(=O)c2cccc(-n3cncn3)c2)c2cccc(OC(F)(F)F)c2O1    0
Cc1cccc2c1O[C@@H](C)CN2C(=O)c1cc(-n2cncn2)ccc1Cl    10

Field: next compound
Observed Plant response rating, Goosegrass, goosegrass, CC1CN(C(=O)c2cc(-n3cncn3)ccc2F)c2cccc(Cl)c2O1 (stereo not drawn) : 30

----------
# Test system: barnyardgrass
# Assay procedure: Test C postemergence
# Type: in vivo, Echinochloa crusgalli
# Particulars: Postemergence, 125 g ai/ha; 0 to 100 scale (0 no effect, 100 complete control), 10 days
Label met when Plant response rating, Barnyardgrass is at or above 40; otherwise label not met.

These solved cases illustrate the format of a correct answer.
Cc1cccc2c1OC(C(F)(F)F)CN2C(=O)c1ccnc(-n2cnc(C(C)C)n2)c1 (single isomer, unassigned) [Compound 320]    not met
CCc1ncn(-c2cccc(C(=O)N3CC(C(F)(F)F)Oc4c(Cl)cccc43)c2)n1 (centres unmarked) [Compound 345]    not met
CC(C)c1ncn(-c2ccc([S+](C)[O-])c(C(=O)N3C[C@H](C)Oc4c(Cl)cccc43)c2)n1 (some centres unmarked) [Compound 394]    met
COc1ncn(-c2cccc(C(=O)N3C[C@H](C)Oc4c(C)cccc43)c2)n1 [Compound 307]    met
CCOC[C@H]1CN(C(=O)c2cc(-n3cnc(C(C)(C)C)n3)ccc2C)c2cccc(Cl)c2O1 [Compound 413]    not met
COC[C@H]1CN(C(=O)c2cc(-n3cnc(C(C)(C)O)n3)ccc2OC)c2cccc(Cl)c2O1 [Compound 408]    not met
C=C(C)c1cc(C(=O)N2C[C@H](C)Oc3c(Cl)cccc32)cc(-n2cncn2)c1 [Compound 317]    not met
COc1ccc(-n2cnc(C3CCC3)n2)cc1C(=O)N1C[C@H](C)Oc2c(Cl)cccc21 [Compound 323]    not met

Q. // inclusive: Plant response rating, Barnyardgrass at least 40? input: CC(C)c1ncn(-c2cccc(C(=O)N3CC(C(F)(F)F)Oc4c(Cl)cccc43)c2)n1 (centres unmarked) [Compound 348]
A. not met

Q. // inclusive: Plant response rating, Barnyardgrass at least 40? input: CCOC[C@H]1CN(C(=O)c2cc(-n3cnc(C(C)(C)C)n3)cc3c2OCO3)c2cccc(Cl)c2O1 [Compound 401]
A. not met

Q. // inclusive: Plant response rating, Barnyardgrass at least 40? input: CC(C)c1ncn(-c2ccc(OS(C)(=O)=O)c(C(=O)N3C[C@H](C)Oc4c(Cl)cccc43)c2)n1 [Compound 338]
A. not met

Q. // inclusive: Plant response rating, Barnyardgrass at least 40? input: Cc1ncnn1-c1cc(C(=O)N2CC(C(F)(F)F)Oc3c(Cl)cccc32)ccn1 (racemic) [Compound 333]
A. not met

Q. // inclusive: Plant response rating, Barnyardgrass at least 40? input: Cc1ncn(-c2ccc(F)c(C(=S)N3C[C@H](C)Oc4c(C)cccc43)c2)n1 [Compound 362]
A. met

Q. // inclusive: Plant response rating, Barnyardgrass at least 40? input: CCOC[C@H]1CN(C(=O)c2cc(-n3cnc(C(C)(C)C)n3)cc3c2OCCO3)c2cccc(Cl)c2O1 [Compound 388]
A. not met
